Measured values drawn from the domain aggregation screens of Martell et al. (2025) for this set.

- protocol summary: soluble fraction after stress (log2 fold change); higher = more stays soluble; pooled small domains, quantitative proteomics;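 also: 20 min heating vs room temperature control held 20 min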
- reported conditions: stress: 75 degC
Category | rule: reported soluble fraction (log2) within range, see lowest: < -0.3; middle: ≥ -0.3 and < 0.04; highest: ≥ 0.04

Example entries begin here.
{"input sequence": "HMSTTSYTQFMEDAKAGKIARVDIKGREITVTPTEGSRYVITSPGDLWMVDDLRKDGVQVYGPP", "label": "highest"}
{"input sequence": "HMQKTQVVEVAGKSYQLTKMDARTGSYVAFKVAGVLAPSGGKTAEMAAALMGMPRKDFDELQSLLLRTV", "label": "middle"}
{"input sequence": "HMENSPLTHREAEVMRLMSEGKSNRAISEHLVISEKTVKNHVSSILQKMSVDDRTQAVLQAIKNGWVD", "label": "highest"}

Could you now look at the following sequence, please?
Determine which band this sequence sits in: `HMTDGYAMRLERLNSLEEYVLNKGTVSLEDLAERFGVSINTIRRDLNELISRGQIKKVYGGVSSLHD` middle

====

- protocol summary: soluble fraction after stress (log2 fold change); higher = more stays soluble; pooled small domains, quantitative proteomics
- reported conditions: stress: 75 degC
quantity: soluble fraction (log2)
Please state the value as a number alone, without comment.

Study these solved cases before continuing.
{"input sequence": "HMGIRQGKVTSTFVNVRSGASTANAKVGELHKGDVVSLIEKVANFWRIGPGQFVSADYIQVLAS", "soluble fraction (log2)": -2.07}
{"input sequence": "HMSDPVKQVAMRILDLREISDYTVDKMAEVLNVPVEEYRKYESGEVDMPISFLVKIGEVFHVDMTELLTG", "soluble fraction (log2)": -1.55}
{"input sequence": "HMKPVSEMDNMEWVREQYFQNMIYEIGEWVKDKKTGIVGEIVKRGTNYVTIVQEDFSLHKIWLEDLETTE", "soluble fraction (log2)": -0.428}

soluble fraction (log2) reported for this sequence `HMNTYVLPDALKSQLSVEDTGMLTKQLQALPETLAEGVLDSLSQMLSKNTLQNPVGWMLAVMKRAREGNFN` : -0.305

====

- protocol summary: soluble fraction after stress (log2 fold change); higher = more stays soluble; pooled small domains, quantitative proteomics
- reported conditions: stress: 75 degC
Each entry below lists one item and its recorded soluble fraction (log2) value.
Please state the value as a number alone, without comment.

{"input sequence": "HMIPSLTITVNEHSRQITRGTSLYTLRDALYPDADVLVVNGHPADSDRHLEEGDAVVLIRRGA", "soluble fraction (log2)": -0.456}
{"input sequence": "HMATTMSADWRPSEDAVGILVNAEINARFIEDAIPEFVLYWRERGAVHGAWNSKFIEHIRRQWAKFSAS", "soluble fraction (log2)": -2.84}
{"input sequence": "HMKFPIITAKQDSDGKFYWAQTTDKGKTYTFILDGDGKKFPIGGTMPDVKINENGYWSVNGSSTGVLANDL", "soluble fraction (log2)": 0.368}
{"input sequence": "HMQKNKSVLFKDIVIAFNQNPKKLFNYKQLAADLDIHSEAERMLISQLLNDLKDQNFLEEVERGKYKLKL", "soluble fraction (log2)": -0.766}

soluble fraction (log2) reported for this sequence `HMENKTGEVTVREDSALTLRQGPGTNYEKVGQAYRGDRVDVLEEQNGWYKVKTYDGKEAWASSSYISIV` : 0.861

soluble fraction (log2) reported for this sequence `HMEKILSYKALMNDAGKRIDQFLANNEKDISRTRIKSLILEGSLKLDNNIINDPSYKIKENDVFTLFIPEA` : -0.482

soluble fraction (log2) reported for this sequence `HMEYYDDEELDRFRGVEADAYDEDAVNEFRDVLYTLQEIEVAGWLRSLQLRAINLPDELKDEAFLI` : -1.48

soluble fraction (log2) reported for this sequence `HMRENAARNRNVNLDIGETLRVDAWSPERRARVQYRGAAWDVELAPNAPATVGEFRIVEVRGNVLVVTP` : -0.604
